// provenance: PubChem BioAssay (NCI)

Documented growth across a set of compounds
- Test system: OVCAR-5 ovarian
- test.summary: NCI-60 one-dose screen, 48 h (100 = growth as untreated, 0 = no growth, -100 = all killed)
- protocol.conditions: 10 µM unless noted
The panel holds about 83,000 compounds, 20% with a hit somewhere; the sample as a whole holds those more often. The source made the active and inactive calls. The calls were made as follows: active = growth percent below 10; inactive = the rest.

Task item: Query: growth; subject: `COc1ccc(-c2csc(NC(=O)CN3CCN(CCO)CC3)n2)cc1NS(=O)(=O)c1cccc2c(N(C)C)cccc12`
Reply: 97% (inactive)

Task item: Subsequent entry: `O=C(/C=C/c1ccc([N+](=O)[O-])cc1)c1ccccc1`
Reply: 106% (inactive)

Task item: // query: `Cc1ccc(/C=C2\COc3ccc(O)c(O)c3C2=O)cc1`
Reply: -22.1% (active)

Task item: And for `C=C1C(=O)O[C@H]2[C@H]1CC/C(COC(=O)NCCCCNC(=O)OC/C1=C/CC[C@@]3(C)O[C@H]3[C@H]3OC(=O)C(=C)[C@@H]3CC1)=C\CC[C@@]1(C)O[C@@H]21` ?
Reply: 4.4% (active)

API: the following record is the query input.
Task item: I am curious: what growth value has been reported for `O=C(N/N=C/c1ccc(O)cc1O)c1cccc(Nc2ccnc(C(F)(F)F)c2)c1` ?
Reply: 47.8% (inactive)
